- tested-on: T1, soluble mouse BLyS (mouse, UniProt Q9WU72 127-309)
- T1 construct: europium-labelled in DELFIA; also called mBLyS; mouse BAFF (BLyS)
- run-description: Biacore T100, binder captured by anti-human Fc, BLyS injected, 1:1 model
The binders listed here are annotated with their koff.
Output spec: scalar in s⁻¹, unitless text.

These recorded examples may help you get a feel for the data.
INSERT INTO measurements (binder, measurement) VALUES
  ('human TACI (R&D Systems receptor chimera) (receptor, UniProt O14836 2-166, looked up, not shown: a dimerising Fc or GST, also called hTACI; TACI rec Human) SGLGRSRRGGRSRVDQEERFPQGLWTGVAMRSCPEEQYWDPLLGTCMSCKTICNHQSQRTCAAFCRSLSCRKEQGKFYDHLLRDCISCASICGQHPKQCAYFCENKLRSPVNLPPELRRQRSGEVENNSDNSGRYQGLEHRGSEASPALPGLKLSADQVALVYST', '6.5e-05'),
  ('6C10 IgG1 F243A/V264A double mutein expressed in Pichia pastoris (antibody, V domains shown, IgG1 F243A/V264A (EU) double mutein, alpha-2,6-sialylated, from glycoengineered Pichia pastoris; also called 6C10-DM; 6C10-DM (Pichia)) VH: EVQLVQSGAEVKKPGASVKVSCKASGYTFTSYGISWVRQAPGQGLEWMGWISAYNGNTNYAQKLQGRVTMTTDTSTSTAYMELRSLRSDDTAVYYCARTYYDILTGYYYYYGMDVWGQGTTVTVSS VL: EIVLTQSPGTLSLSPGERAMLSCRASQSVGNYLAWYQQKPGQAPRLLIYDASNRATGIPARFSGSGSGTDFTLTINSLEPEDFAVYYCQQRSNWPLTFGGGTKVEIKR', 0.000224),
  ('8D12 IgG1 F243A/V264A double mutein expressed in Pichia pastoris (antibody, V domains shown, IgG1 F243A/V264A (EU) double mutein, alpha-2,6-sialylated, from glycoengineered Pichia pastoris; also called 8D12-DM; 8D12-DM (Pichia)) VH: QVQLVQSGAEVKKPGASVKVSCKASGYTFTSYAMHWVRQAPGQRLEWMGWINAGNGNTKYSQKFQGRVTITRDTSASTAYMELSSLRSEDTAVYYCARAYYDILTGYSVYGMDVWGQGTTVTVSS VL: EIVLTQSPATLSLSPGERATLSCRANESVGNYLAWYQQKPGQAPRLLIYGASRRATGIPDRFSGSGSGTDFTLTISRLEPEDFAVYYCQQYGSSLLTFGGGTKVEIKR', 0.000196);

Turning to the following binder.
Lookup: Name the recorded koff of the binder listed here: 5G10 IgG1 F243A/V264A double mutein expressed in Pichia pastoris (antibody, V domains shown, IgG1 F243A/V264A (EU) double mutein, alpha-2,6-sialylated, from glycoengineered Pichia pastoris; also called 5G10 (D132947)) VH: QMQLVQSGAEVKKPGASVKVSCKASGYTFTSYAMHWVRQAPGQRLEWMGWINAGNGNTKYSQKFQGRVTITRDTSASTAYMELSSLRSEDTAVYYCAREMAVAGTYYYYGMDVWGQGTTVTVSS VL: DIQLTQSPSTLSASVGDRVTITCRASQSISGWLAWYQQKPGRAPKLLIYKASSLESGVPSRFSGSGSGTDFTLTISSLQPEDIATYYCQQFDNLLLMYTFGQGTKLEIRR
Found: 0.000451
